Values were extracted from patent US10722520B2.

- system_tested: AmpC (PAE) (Pseudomonas aeruginosa, UniProt P24735)
- test_context: read-out: IC50 β-lactamase AmpC (PAE); class (C); nitrocefin 200 μM, 30-min pre-incubation, enzyme 0.4 nM
property: IC50 (nM)
A number alone suffices; assume nM.

Reference set, count: 5
CC(=O)Nc1cnn(C2=CC3CN(C2)C(=O)N3OS(=O)(=O)[O-])c1.[Na+] (centres unmarked) : 320
NCc1cn(C2=CC3CN(C2)C(=O)N3OS(=O)(=O)[O-])nn1.O=C(O)C(F)(F)F.[Na+] (centres unmarked) : 550
O=C1N2CC(n3cc(N4CCOCC4)cn3)=CC(C2)N1OS(=O)(=O)[O-].[Na+] (centres unmarked) : 910
O=C1N2CC(n3cc(S(=O)(=O)NCCO)cn3)=CC(C2)N1OS(=O)(=O)[O-].[Na+] (centres unmarked) : 110
CC(=O)Nc1ccn(C2=CC3CN(C2)C(=O)N3OS(=O)(=O)O)n1.CCN(CC)CC (centres unmarked) : 32

### Prompt Give IC50; test system AmpC (PAE) (Pseudomonas aeruginosa, UniProt P24735); molecule N#Cc1ccn(C2=CC3CN(C2)C(=O)N3OS(=O)(=O)[O-])n1.[Na+] (centres unmarked)
### Response 280

### Prompt Give IC50; test system AmpC (PAE) (Pseudomonas aeruginosa, UniProt P24735); molecule NC(=O)c1nn(C2=CC3CN(C2)C(=O)N3OS(=O)(=O)[O-])cc1F.[Na+] (centres unmarked)
### Response 130

### Prompt Give IC50; test system AmpC (PAE) (Pseudomonas aeruginosa, UniProt P24735); molecule NC(=O)c1cn(C2=CC3CN(C2)C(=O)N3OS(=O)(=O)[O-])nn1.[Na+] (centres unmarked)
### Response 290

---

Form: system (OXA-11 (Pseudomonas aeruginosa, UniProt Q06778)), quantity (pIC50), values below.
Formally, pIC50 is defined as -log10 of the concentration c, with c in mol/L.

O=C1N2CC(n3ncnn3)=CC(C2)N1OS(=O)(=O)[O-].[Na+] (centres unmarked) [Example 44] : 7.70

### Prompt Let me know recorded pIC50 for COc1cnn(C2=CC3CN(C2)C(=O)N3OS(=O)(=O)[O-])c1.[Na+] (centres unmarked) [Example 9] , thanks.
### Response 6.51

### Prompt Let me know recorded pIC50 for O=C1N2CC(n3cc(F)cn3)=CC(C2)N1OS(=O)(=O)[O-].[Na+] (centres unmarked) [Example 14, sulfate] , thanks.
### Response 7.47

### Prompt Let me know recorded pIC50 for NC(=O)c1ccn(C2=CC3CN(C2)C(=O)N3OS(=O)(=O)[O-])n1.[Na+] (centres unmarked) [Example 19] , thanks.
### Response 7.57

### Prompt Let me know recorded pIC50 for O=C1N2CC(n3cc(N4CCNCC4)cn3)=CC(C2)N1OS(=O)(=O)O (centres unmarked) [Example 42] , thanks.
### Response 6.07

### Prompt Let me know recorded pIC50 for CC(=NOCCN)c1ccn(C2=CC3CN(C2)C(=O)N3OS(=O)(=O)O)n1 (mixture of isomers) [Example 29] , thanks.
### Response 7.51

### Prompt Let me know recorded pIC50 for NS(=O)(=O)c1cnn(C2=CC3CN(C2)C(=O)N3OS(=O)(=O)[O-])c1.[Na+] (centres unmarked) [Example 16] , thanks.
### Response 6.19

### Prompt Let me know recorded pIC50 for O=C(Nc1nccs1)c1ccn(C2=CC3CN(C2)C(=O)N3OS(=O)(=O)[O-])n1.[Na+] (centres unmarked) [Example 25] , thanks.
### Response 8.38

---

Form: system (OXA-48 (Klebsiella pneumoniae)), quantity (log10(IC50)), values below.
Lab note - IC50 converted to log10 from values in nM.

Reference set, count: 3
NC(=O)c1ccn(C2=CC3CN(C2)C(=O)N3OS(=O)(=O)[O-])n1.[Na+] (stereo not drawn) [Example 19] : 0.72
NCCNC(=O)c1cnn(C2=CC3CN(C2)C(=O)N3OS(=O)(=O)O)c1 (stereo not drawn) [Example 38] : 0.51
NCCONC(=O)c1cn(C2=CC3CN(C2)C(=O)N3OS(=O)(=O)O)nn1 (stereo not drawn) [Example 63] : -0.01

### Prompt Give log10(IC50); test system OXA-48 (Klebsiella pneumoniae); molecule O=C1N2CC(n3cc(CO)nn3)=CC(C2)N1OS(=O)(=O)O (stereo not drawn) [Example 64]
### Response -0.15

### Prompt Give log10(IC50); test system OXA-48 (Klebsiella pneumoniae); molecule NC(=O)Cc1ccn(C2=CC3CN(C2)C(=O)N3OS(=O)(=O)[O-])n1.[Na+] (stereo not drawn) [Example 45]
### Response 1.26

### Prompt Give log10(IC50); test system OXA-48 (Klebsiella pneumoniae); molecule O=C(NCCO)c1ccn(C2=CC3CN(C2)C(=O)N3OS(=O)(=O)[O-])n1.[Na+] (stereo not drawn) [Example 11]
### Response 0.89

### Prompt Give log10(IC50); test system OXA-48 (Klebsiella pneumoniae); molecule O=C1N2CC(n3ncnn3)=CC(C2)N1OS(=O)(=O)[O-].[Na+] (stereo not drawn) [Example 44]
### Response -0.54

### Prompt Give log10(IC50); test system OXA-48 (Klebsiella pneumoniae); molecule O=C(Nc1nncs1)c1ccn(C2=CC3CN(C2)C(=O)N3OS(=O)(=O)[O-])n1.[Na+] (stereo not drawn) [Example 84]
### Response 0.86

### Prompt Give log10(IC50); test system OXA-48 (Klebsiella pneumoniae); molecule O=C(NC1CCNCC1)c1ccn(C2=CC3CN(C2)C(=O)N3OS(=O)(=O)O)n1 (stereo not drawn) [Example 32]
### Response 0.18

### Prompt Give log10(IC50); test system OXA-48 (Klebsiella pneumoniae); molecule NC(=O)CONC(=O)c1ccn(C2=CC3CN(C2)C(=O)N3OS(=O)(=O)[O-])n1.[Na+] (stereo not drawn) [Example 52]
### Response 0.88

### Prompt Give log10(IC50); test system OXA-48 (Klebsiella pneumoniae); molecule O=C1N2CC(n3ccnc3CO)=CC(C2)N1OS(=O)(=O)[O-].[Na+] (stereo not drawn) [Example 70]
### Response 0.79

---

- System: P. aeruginosa CIP107051
- experiment: MIC of ceftazidime (CAZ) at fixed concentration of compound (synergy), broth microdilution
- Assay type: cell-based
- test_context: strain CIP107051; MIC of CAZ, compound fixed at 4 μg/mL
Measured MIC combination of CAZ and compounds of the invention at 4 μg/mL accompanies every entry in the list below.
A number alone suffices; assume mg/L.

Reference set, count: 3
O=C([O-])Cc1cn(C2=CC3CN(C2)C(=O)N3OS(=O)(=O)[O-])nn1.[Na+].[Na+] (stereo not shown) : 4
Cc1cc(C(N)=O)nn1C1=CC2CN(C1)C(=O)N2OS(=O)(=O)[O-].[Na+] (stereo not shown) : 16
CC(=O)Nc1ccn(C2=CC3CN(C2)C(=O)N3OS(=O)(=O)O)n1.CCN(CC)CC (stereo not shown) : 8

### Prompt Let me know recorded MIC combination of CAZ and compounds of the invention at 4 μg/mL for CN(C)C.NC(=O)CCc1nccn1C1=CC2CN(C1)C(=O)N2OS(=O)(=O)O (stereo not shown) , thanks.
### Response 8

---

- system_tested: OXA-15 (Pseudomonas aeruginosa, UniProt Q51574)
- experiment: biochemical
property: IC50
Your reply should be a number followed by the unit it is expressed in.

Reference set, count: 3
O=C(Nc1ncco1)c1ccn(C2=CC3CN(C2)C(=O)N3OS(=O)(=O)[O-])n1.[Na+] (centres unmarked) : 32 nM
O=C(Nc1nncs1)c1ccn(C2=CC3CN(C2)C(=O)N3OS(=O)(=O)[O-])n1.[Na+] (centres unmarked) : 98 nM
O=C(NCCO)c1ccn(C2=CC3CN(C2)C(=O)N3OS(=O)(=O)[O-])n1.[Na+] (centres unmarked) : 78 nM

### Prompt Let me know recorded IC50 for NC(=O)c1ccn(C2=CC3CN(C2)C(=O)N3OS(=O)(=O)[O-])n1.[Na+] (centres unmarked) , thanks.
### Response 61 nM

### Prompt Let me know recorded IC50 for O=C1N2CC(n3nccc3CCO)=CC(C2)N1OS(=O)(=O)[O-].[Na+] (centres unmarked) , thanks.
### Response 4100 nM

### Prompt Let me know recorded IC50 for N#Cc1cnn(C2=CC3CN(C2)C(=O)N3OS(=O)(=O)[O-])c1.[Na+] (centres unmarked) , thanks.
### Response 5.3 nM

### Prompt Let me know recorded IC50 for O=C(Nc1cc[nH]n1)c1ccn(C2=CC3CN(C2)C(=O)N3OS(=O)(=O)[O-])n1.[Na+] (centres unmarked) , thanks.
### Response 16 nM

### Prompt Let me know recorded IC50 for O=C(Nc1ccn(C2=CC3CN(C2)C(=O)N3OS(=O)(=O)O)n1)c1cncs1 (centres unmarked) , thanks.
### Response 46 nM
